# Measured Target: T1, cynomolgus monkey IL-21R expressed on CHO cells (cynomolgus monkey)
# T1 construct: whole, on cells
# Procedure Text: cell ELISA on transfected CHO cells, 13 nM IgG
Measurement Kind: A450 at 13 nM Ab in cell ELISA (A450)

[[record]]
binder = "AbC (antibody, human IgG1, V domains shown, Full-length human IgG1 / human lambda, transient, conditioned medium; Framework limits derived; also called VHP/VL11) VH: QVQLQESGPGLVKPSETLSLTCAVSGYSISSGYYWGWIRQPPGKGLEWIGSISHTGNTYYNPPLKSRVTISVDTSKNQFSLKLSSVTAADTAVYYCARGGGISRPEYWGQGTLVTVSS VL: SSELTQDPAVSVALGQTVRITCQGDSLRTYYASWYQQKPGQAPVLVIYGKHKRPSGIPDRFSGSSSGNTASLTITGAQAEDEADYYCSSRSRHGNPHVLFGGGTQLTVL"
unit_spec = "A450"
measured_number = 1.28

[[record]]
binder = "AbM (antibody, human IgG1, V domains shown, Full-length human IgG1 / human lambda, transient, conditioned medium; Framework limits derived; also called VH6/VL13) VH: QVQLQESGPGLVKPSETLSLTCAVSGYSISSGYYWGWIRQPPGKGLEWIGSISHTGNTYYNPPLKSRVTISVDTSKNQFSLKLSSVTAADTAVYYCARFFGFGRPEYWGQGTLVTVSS VL: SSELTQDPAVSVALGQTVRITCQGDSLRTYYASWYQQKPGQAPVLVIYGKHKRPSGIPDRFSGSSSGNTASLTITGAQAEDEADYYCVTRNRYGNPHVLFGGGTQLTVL"
unit_spec = "A450"
measured_number = 1.45

[[record]]
binder = "AbN (antibody, human IgG1, V domains shown, Full-length human IgG1 / human lambda, transient, conditioned medium; Framework limits derived; also called VH6/VL24) VH: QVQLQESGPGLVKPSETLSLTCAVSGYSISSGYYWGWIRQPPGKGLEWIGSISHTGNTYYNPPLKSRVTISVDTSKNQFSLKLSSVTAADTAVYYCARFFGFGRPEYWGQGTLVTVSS VL: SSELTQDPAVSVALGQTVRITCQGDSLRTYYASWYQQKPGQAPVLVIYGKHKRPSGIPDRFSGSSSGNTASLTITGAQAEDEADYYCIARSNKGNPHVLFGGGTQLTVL"
unit_spec = "A450"
measured_number = 1.5

[[record]]
binder = "AbS (antibody, human IgG1, V domains shown, Human IgG1 triple-mutant (L234A, L235A, G237A); Framework limits derived; also called VHP/VL6; VHPTM/VL6) VH: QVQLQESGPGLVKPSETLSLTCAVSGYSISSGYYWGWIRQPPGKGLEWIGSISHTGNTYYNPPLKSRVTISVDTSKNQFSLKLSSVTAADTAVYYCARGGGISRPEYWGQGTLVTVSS VL: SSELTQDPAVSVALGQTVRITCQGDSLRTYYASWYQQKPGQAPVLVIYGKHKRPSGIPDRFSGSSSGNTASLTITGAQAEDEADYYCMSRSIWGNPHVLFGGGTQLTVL"
unit_spec = "A450"
measured_number = 1.22

[[record]]
binder = "AbE (antibody, human IgG1, V domains shown, Full-length human IgG1 / human lambda, transient, conditioned medium; Framework limits derived; also called VHP/VL14) VH: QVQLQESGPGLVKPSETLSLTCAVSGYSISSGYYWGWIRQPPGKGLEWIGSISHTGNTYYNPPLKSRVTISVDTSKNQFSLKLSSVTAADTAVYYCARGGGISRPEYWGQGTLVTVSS VL: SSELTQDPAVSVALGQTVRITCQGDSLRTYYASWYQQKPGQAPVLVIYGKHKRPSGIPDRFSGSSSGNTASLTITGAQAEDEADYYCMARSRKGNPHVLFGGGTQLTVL"
unit_spec = "A450"
measured_number = 1.42

